tested on: 883617-216-R-J1-PDC complex spheroid viability; assay: Anticancer human tumor 883617-216-R-J1-PDC patient-derived bladder carcinoma cell line growth inhibition; settings: second compound 10 µM; first compound 0.03 µM; hits give low values;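 also: exposure lasted seven days after three days of spheroid growth; 100% = DMSO vehicle control luminescence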
viability, T/C values, listed per item

compound: Nc1ccn(C2OC(CO)C(O)C2(F)F)c(=O)n1 (configuration not stated) + NC1CCC(NC2CC2c2ccccc2)CC1
unit.string: %
viability, T/C: 23.6
--
compound: CCN(c1cc(-c2ccc(CN3CCOCC3)cc2)cc(C(=O)NCc2c(C)cc(C)[nH]c2=O)c1C)C1CCOCC1 + NC1CC1c1ccc(-c2cccc(O)c2)cc1
unit.string: %
viability, T/C: 72.9
--
compound: COc1cc(C2c3cc4c(cc3C(OC3OC5COC(C)OC5C(O)C3O)C3COC(=O)C23)OCO4)cc(OC)c1O (configuration not stated) + NC1CC1c1ccc(-c2cccc(O)c2)cc1
unit.string: %
viability, T/C: 59.5
--
compound: CCN(c1cc(-c2ccc(CN3CCOCC3)cc2)cc(C(=O)NCc2c(C)cc(C)[nH]c2=O)c1C)C1CCOCC1 + NC1CCC(NC2CC2c2ccccc2)CC1
unit.string: %
viability, T/C: 91.7
--
compound: NS(=O)(=O)OCC1CC(n2ccc3c(NC4CCc5ccccc54)ncnc32)CC1O (configuration not stated) + NC1CCC(NC2CC2c2ccccc2)CC1
unit.string: %
viability, T/C: 117
--
compound: Nc1ccn(C2OC(CO)C(O)C2(F)F)c(=O)n1 (configuration not stated) + NC1CC1c1ccc(-c2cccc(O)c2)cc1
unit.string: %
viability, T/C: 24.3
--
compound: CCc1c2c(nc3ccc(O)cc13)-c1cc3c(c(=O)n1C2)COC(=O)[C@]3(O)CC + NC1CC1c1ccc(-c2cccc(O)c2)cc1
unit.string: %
viability, T/C: 13.8
